All values here come from paper PMC12040169.

The molecules listed here are annotated with their viability at 28.5 h, 10 µM.
test.protocol: in vitro
measurement.parameters: human, hela cells, % viability
Supply the numeric figure in %, leaving out any unit text.

Some entries whose results are on file:
{"columns": ["molecule", "measurement.name", "assay.value"],
 "data": [
  ["COc1ccc(/C=N/Nc2ccc([N+](=O)[O-])cc2)c(C(=O)O)c1OC", "viability at 28.5 h, 10 µM", 90.5],
  ["CN1CCN(CCC(=O)N/N=C/c2ccccc2O)CC1", "viability at 28.5 h, 10 µM", 93.1],
  ["Cc1cc(C)n(C(C)CC(=O)NCC(C)N2CCC(C)CC2)n1 (centres unmarked)", "viability at 28.5 h, 10 µM", 108],
  ["NS(=O)(=O)c1cccnc1NCc1ccccc1", "viability at 28.5 h, 10 µM", 85.7]
]}

Assign viability at 28.5 h, 10 µM to the following record: `CC(C)[C@@H](CO)Nc1nc(-c2ccc(S(C)(=O)=O)cc2)cnc1N`
91.2

###

test.protocol: in vitro
measurement.parameters: human, hela cells, % viability
# if measured viability at 28.5 h, 10 µM < 90%: met  # else: not met

# count of solved cases: 3
{"columns": ["molecule", "label"],
 "data": [
  ["CSc1nnc(CC2CCN(C(=O)c3cccc(N)c3)CC2)n1C", "met"],
  ["O=C1NCCNC(=O)C2(C/C=C/COc3ccccc31)CCN(C(=O)CCN1CCCCC1)CC2", "not met"],
  ["CN(C)c1ccc(Nc2cc(-c3cccc4ccccc34)ncn2)cc1", "met"]
]}

Field: below-cutoff. Rule: recorded viability at 28.5 h, 10 µM strictly less than 90%. Subject: COc1ccc(C(=O)N2CCC3(CCCN(C(=O)CCSC)C3)C2)cc1OC (centres unmarked)
not met

Field: below-cutoff. Rule: recorded viability at 28.5 h, 10 µM strictly less than 90%. Subject: `O=[N+]([O-])c1ccc(NCCNCCO)c(Cl)c1`
not met

###

test.protocol: in vitro
measurement.parameters: human, hela cells, % viability
The compounds listed here are annotated with their viability at 28.5 h, 10 µM.
Supply the numeric figure in %, leaving out any unit text.

Assign viability at 28.5 h, 10 µM to the following record: `Cc1cc(CN2CCC(O)(c3cccnc3F)CC2)oc1C`
83

Assign viability at 28.5 h, 10 µM to the following record: `O=C1CCC(=O)N1CCOc1nccnc1OC1CCN(Cc2ccc(Cl)cc2)CC1`
108

Assign viability at 28.5 h, 10 µM to the following record: `O=C(Nc1nnc(-c2ccco2)o1)c1ccc(N2C(=O)CCC2=O)cc1`
90.7

Assign viability at 28.5 h, 10 µM to the following record: `N[C@H](CCc1nc2ccccc2[nH]1)C(=O)O`
98.2

Assign viability at 28.5 h, 10 µM to the following record: `CC(C)C(=O)Nc1cc2cccnc2nc1-c1ccccc1`
94.7

Assign viability at 28.5 h, 10 µM to the following record: `N#Cc1cc(SCCC(=O)O)c(N2CCOCC2)cc1C#N`
96.3

Assign viability at 28.5 h, 10 µM to the following record: `Cc1ccc(S(=O)(=O)NCCSCc2ccc(Cl)c(Cl)c2)cc1[N+](=O)[O-]`
99.9

Assign viability at 28.5 h, 10 µM to the following record: `Cc1ccc(C(=O)N(C)CCN(C)C)c(NCc2cccnc2)n1`
91.5

Assign viability at 28.5 h, 10 µM to the following record: COc1ccc([C@@]23CCC(NC(=O)Nc4cc(C(F)(F)F)ccc4F)C[C@@H]2N(C)CC3)cc1OC (stereo partly drawn) [CBK047552T]
87.2
